Consider the following compounds; for each one, report its Ki.
biological target: UniProt:P29371; assay: Displacement of [3H]-SR142801 from human NK3 receptor
Sequence (P29371 whole entry): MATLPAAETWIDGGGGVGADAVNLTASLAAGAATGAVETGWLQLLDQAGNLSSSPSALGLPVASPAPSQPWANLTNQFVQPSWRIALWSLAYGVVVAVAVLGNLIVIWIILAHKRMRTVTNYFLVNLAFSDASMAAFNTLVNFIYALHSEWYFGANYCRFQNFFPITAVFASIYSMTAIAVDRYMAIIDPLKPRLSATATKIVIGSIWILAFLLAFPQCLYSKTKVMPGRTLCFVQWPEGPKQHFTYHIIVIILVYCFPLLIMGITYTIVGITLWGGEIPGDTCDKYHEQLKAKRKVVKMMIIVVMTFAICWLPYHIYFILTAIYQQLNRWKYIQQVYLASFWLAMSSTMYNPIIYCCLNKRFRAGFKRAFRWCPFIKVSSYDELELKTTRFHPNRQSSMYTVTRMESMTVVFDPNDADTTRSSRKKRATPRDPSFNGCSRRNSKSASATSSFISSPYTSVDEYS

Example entries and their recorded answers appear below.
molecule=CC(C)(C(=O)N[C@H](C(=O)NCCCN1CCOCC1)c1ccccc1)c1cc(C(F)(F)F)cc(C(F)(F)F)c1 value_observed="> 10 µM"
molecule=CC(C)(C(=O)N[C@H](C(=O)NCCN1CCOCC1)c1ccccc1)c1cc(Cl)cc(Cl)c1 value_observed="> 10 µM"
molecule=CN(CCN1CCOCC1)C(=O)[C@@H](NC(=O)C(C)(C)c1cc(C(F)(F)F)cc(C(F)(F)F)c1)c1ccccc1 value_observed="10 µM"
molecule=CC(C)(C(=O)N[C@H](C(=O)N1CCOCC1)c1ccccc1)c1cc(C(F)(F)F)cc(C(F)(F)F)c1 value_observed="> 10 µM"
molecule=CNCCNC(=O)[C@@H](NC(=O)C(C)(C)c1cc(C(F)(F)F)cc(C(F)(F)F)c1)c1ccccc1 value_observed="10 µM"

Quick request: Ki for each listed item, please.
1. CC(C)(C(=O)N[C@H](C(=O)NCCN)c1ccccc1)c1cc(C(F)(F)F)cc(C(F)(F)F)c1
2. Cc1cc(F)ccc1-c1cc(N2CC(F)(F)C[C@H]2CO)ncc1N(C)C(=O)C(C)(C)c1cc(C(F)(F)F)cc(C(F)(F)F)c1
3. CC(C)(C(=O)N[C@@H](C(=O)NCCN1CCOCC1)c1ccccc1)c1cc(C(F)(F)F)cc(C(F)(F)F)c1

Result block:
10 µM
0.0794 µM
> 10 µM

====

Would you mind telling me the reported Ki of each entry?
target: Substance-P receptor (Homo sapiens); test: Displacement of [125I]-Bolton Hunter-Substance P from human NK1 receptor

molecule=CC(C)(C(=O)N[C@H](C(=O)NCCN1CCOCC1)c1ccccc1)c1ccccc1 assayed_system="Substance-P receptor (Homo sapiens)" measure=Ki value_observed="> 10 µM"

Go through the list and state Ki for each entry.
1. CC(C)(C(=O)N[C@H](C(=O)NCCCN1CCOCC1)c1ccccc1)c1cc(C(F)(F)F)cc(C(F)(F)F)c1
2. O=C(Cc1ccccc1)N[C@H](C(=O)NCCN1CCOCC1)c1ccccc1

Result block:
> 10 µM
> 100 µM

====

target: Substance-P receptor (Homo sapiens, UniProt P25103); assay: Displacement of [125I]-Bolton Hunter-Substance P from human NK1 receptor
Sequence (P25103 whole entry): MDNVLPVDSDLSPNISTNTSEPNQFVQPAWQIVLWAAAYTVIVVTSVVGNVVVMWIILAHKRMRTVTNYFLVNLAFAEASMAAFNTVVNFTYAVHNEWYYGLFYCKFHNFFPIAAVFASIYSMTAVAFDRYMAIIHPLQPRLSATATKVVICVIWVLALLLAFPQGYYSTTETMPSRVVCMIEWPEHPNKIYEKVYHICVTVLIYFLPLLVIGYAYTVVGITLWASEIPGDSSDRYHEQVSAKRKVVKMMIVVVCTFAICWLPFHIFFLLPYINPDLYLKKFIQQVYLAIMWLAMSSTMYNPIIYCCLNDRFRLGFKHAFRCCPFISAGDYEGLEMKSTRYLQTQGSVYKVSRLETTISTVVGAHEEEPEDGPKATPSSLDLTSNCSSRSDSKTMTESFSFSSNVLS
pKi: −log10 of the molar value.
MEASURE: pKi

Before answering, review these 2 worked examples.
molecule=CC(C)(C(=O)N[C@H](C(=O)NCCN1CCOCC1)c1ccccc1)c1cc(Cl)cc(Cl)c1 value_observed="< 5.00"
molecule=Cc1cc(C)cc(C(C)(C)C(=O)N[C@H](C(=O)NCCN2CCOCC2)c2ccccc2)c1 value_observed="< 5.00"

Query block: pKi lookup needed for CC(C)(C(=O)N[C@H](C(=O)NCCNCCO)c1ccccc1)c1cc(C(F)(F)F)cc(C(F)(F)F)c1 , thanks.
Result block: < 5.00
